- experimental_setup: buffer; pH 7.4; 200.0 µM
Short version: solubility kinetic at least 10 µg/mL is 1, less is 0.

// below: answered compounds
compound | class_assignment
Cc1cc(=O)[nH]c2c(C)cc(S(=O)(=O)N3CCOCC3)cc12 | 1
C/C(=N/OC(=O)c1ccc(C)cc1)C(=O)c1ccc(Br)cc1 | 1
CC(C)C1Oc2ccccc2N(CC(=O)N(C)C2CCCCC2)C1=O (stereo not drawn) | 1

Problem: Say whether `CCN(Cc1ccncc1)C(=S)NCc1ccccc1` shows solubility kinetic of 10 µg/mL or more.
Result: 1

Problem: Say whether CCOc1ccc(N2C(=O)CC(NCC#N)C2=O)cc1 (stereo not drawn) shows solubility kinetic of 10 µg/mL or more.
Result: 1

Problem: Say whether `COc1cccc(N/C(N)=N/c2nc(C)cc(=O)[nH]2)c1` shows solubility kinetic of 10 µg/mL or more.
Result: 1

Problem: Say whether `C=CCN1C(=O)C(=O)N(Cc2nc3ccccc3s2)C1=O` shows solubility kinetic of 10 µg/mL or more.
Result: 1

Problem: Say whether `Cc1ccc(N2C(=O)CC3(CCCC3)CC2=O)cc1` shows solubility kinetic of 10 µg/mL or more.
Result: 1

These data points were gathered from PubChem BioAssay AID1996.
